- ASSAYED_SYSTEM: T1, FcRn-p3 fusion protein (human, UniProt P55899 24-297; P61769 21-119)
- T1 construct: baculovirus expressed; coated on ELISA wells; not shown: amino terminal part of bacteriophage p3 protein and CVDE protein
- T1 sequence (P55899 24-297, chain 1 of 2): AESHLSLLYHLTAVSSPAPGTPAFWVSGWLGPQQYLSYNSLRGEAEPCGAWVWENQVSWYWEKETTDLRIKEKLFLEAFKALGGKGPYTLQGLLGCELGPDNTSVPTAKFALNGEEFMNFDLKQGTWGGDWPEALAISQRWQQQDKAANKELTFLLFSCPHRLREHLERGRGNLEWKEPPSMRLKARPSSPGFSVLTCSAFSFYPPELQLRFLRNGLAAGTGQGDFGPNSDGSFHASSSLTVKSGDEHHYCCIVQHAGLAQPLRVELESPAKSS
- T1 sequence (P61769 21-119, chain 2 of 2): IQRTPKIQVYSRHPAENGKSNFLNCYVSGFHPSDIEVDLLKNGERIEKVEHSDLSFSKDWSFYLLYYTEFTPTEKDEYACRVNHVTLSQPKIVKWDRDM
- EXPERIMENT: phage ELISA pH6 (est.)
QUANTITY_KIND: Ratio/FWT (fold)
Answer with a number only, understood to be in fold.

**Query** Report Ratio/FWT for T7A_49 (other, EU numbering) CPPCTAPELLGGPSVFLFPPKPKDTLMISRTPEVTCVVVDVSHEDPEVKFNWYVDGVEVHNAKTKPREEQYNSTYRVVSVLTVLHQDWLDGKEYECKVSNKALPAPIEKTISKAKGQPREPQVYTLPPSRDELTKNRVSLTCLVKGFYPSDIAVEWESNGQPENNYKTTPPVLDSDGSFFLYSKLTVDKSRWQQGNVFSCSVMHEALHYHYTQKSLSLSPGK please.
**Result** 11.6

**Query** Report Ratio/FWT for C7A_18 (other, EU numbering) CPPCPAPELLGGPSVFLFPPKPKDTLMISRTPEVTCVVEDVSHEDPEVKFNWYVDGVEVHNAKTKPREEQYNSTYRVVSVLTVLHQDWLNGKEYKCKVSNKALPAPIEKTISKAKGQPREPQVYTLPPSRDELTKNQVSLTCLVKGFYPSDIVVEWESNGQPENNYKTTPPVLDSDGSFFLYSKLTVDRSRWQQGTVFSCSVMHEALHYHYTQKSLSLSPGK please.
**Result** 8.9

**Query** Report Ratio/FWT for C5A_50 (other, EU numbering) CPPCPAPELLGGPSVFLFPPKPKDTLMISRTPEVTCVVVDVSHENPEVKFNWYVDGVEVHNAKTKPREEQYNSTYRVVSVLTVLHQDWLDGKEYKCKVSNKALPAPIEKTISKAKGQPREPQVYTLPPSRDELTKNQVSLTCLVKGFYPSDIAVEWESNGQPENNYKTTPPVLDSDGSFFLYSKLTVDKSRWQQGNVFSCSVMHEALHYHYTQKSLSLSPGK please.
**Result** 7.3
